Biological target: GST-tagged PAK1 (Y270-H545) (human, UniProt Q13153-1 270-545)
Sequence (Q13153 270-545): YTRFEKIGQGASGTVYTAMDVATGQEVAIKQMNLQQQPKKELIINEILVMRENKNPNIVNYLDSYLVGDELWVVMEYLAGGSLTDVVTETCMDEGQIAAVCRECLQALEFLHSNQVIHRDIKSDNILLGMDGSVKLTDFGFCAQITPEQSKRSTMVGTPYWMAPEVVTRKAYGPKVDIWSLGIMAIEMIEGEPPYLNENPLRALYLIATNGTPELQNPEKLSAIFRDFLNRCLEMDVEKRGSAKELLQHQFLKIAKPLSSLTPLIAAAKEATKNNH
Experiment: ITC
reported endpoint: pKd
The value called pKd is obtained by taking minus log10 of the concentration in mol/L.

INPUT: Which pKd reading was recorded for the binder complete sortilin cytoplasmic domain (K779-E831), GST tag removed (domain or fragment) KKYVCGGRFLVHRYSVLQQHAEANGVDGVDALDTASHTNKSGYHDDSDEDLLE ?
OUTPUT: 5.74
